fraction unbound at 10 μg/mL overview
# assay-notes: in vitro binding to rat plasma proteins
# Assay type: in vitro ADME
# assay-setup: compound concentration 10 μg/mL, read-out: Protein Binding (converted)
The response must contain the number and no unit.

CC(Cc1ccc([C@@H](C)C(=O)NCCCN2CCCCC2)cc1)C(=O)O (stereo partly shown) [Example 4] has a reported fraction unbound at 10 μg/mL of 0.3

***
CC(C)Cc1ccc([C@@H](C)C(=O)NCCCN2CCCCC2)cc1 [reference compound] has a reported fraction unbound at 10 μg/mL of 0.2

CC(Cc1ccc([C@@H](C)C(=O)NS(C)(=O)=O)cc1)C(=O)O (stereo partly shown) [Example 1] has a reported fraction unbound at 10 μg/mL of 0.28

----------
half-life overview
# assay-notes: T1/2 after single bolus i.v. administration in rat
# assay-setup: in vivo, iv; after single bolus i.v. administration in rat (15 mg/Kg); read-out: T½ (converted)
Could you write the number and then its unit?

Examples from the recorded data:
CC(C)Cc1ccc([C@@H](C)C(=O)NS(C)(=O)=O)cc1 [reference compound] has a reported half-life of 0.5 h

CC(C)Cc1ccc([C@@H](C)C(=O)NCCCN2CCCCC2)cc1 [reference compound] has a reported half-life of 1 h

CC(Cc1ccc([C@@H](C)C(=O)NS(C)(=O)=O)cc1)C(=O)O (stereo partly shown) has a reported half-life of 2 h

As a next step, examine the molecule that follows.
CC(Cc1ccc([C@@H](C)C(=O)NCCCN2CCCCC2)cc1)C(=O)O (stereo partly shown) has a reported half-life of 2 h
